Source: paper doi:10.1101/208439v1

test_system: UniProt:O14744
Sequence (O14744 whole entry): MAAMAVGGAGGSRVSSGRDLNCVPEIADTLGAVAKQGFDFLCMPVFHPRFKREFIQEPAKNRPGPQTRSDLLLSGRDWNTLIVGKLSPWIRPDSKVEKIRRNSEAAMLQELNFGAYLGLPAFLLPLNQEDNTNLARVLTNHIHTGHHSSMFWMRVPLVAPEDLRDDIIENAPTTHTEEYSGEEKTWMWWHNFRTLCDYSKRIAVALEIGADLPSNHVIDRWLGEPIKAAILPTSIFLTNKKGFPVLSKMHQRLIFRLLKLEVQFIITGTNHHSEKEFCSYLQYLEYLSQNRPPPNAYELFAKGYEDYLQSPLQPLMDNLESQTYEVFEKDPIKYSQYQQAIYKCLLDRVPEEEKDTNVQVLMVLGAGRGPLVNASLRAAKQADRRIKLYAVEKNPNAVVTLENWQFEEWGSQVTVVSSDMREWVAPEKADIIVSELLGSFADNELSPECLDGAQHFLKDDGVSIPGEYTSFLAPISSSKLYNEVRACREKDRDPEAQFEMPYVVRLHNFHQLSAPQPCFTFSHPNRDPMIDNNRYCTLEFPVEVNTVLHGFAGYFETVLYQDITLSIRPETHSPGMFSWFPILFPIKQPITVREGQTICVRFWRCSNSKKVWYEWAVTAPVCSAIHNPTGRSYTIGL
test_method_notes: biochemical
conditions: read-out: DA3003-1 IC50; inhibitor
readout: pIC50
Recall that pIC50 is obtained by taking minus log10 of the concentration measured in molar.

Query: So what's the measured pIC50 for this one? O=C1C(Cl)=C(NCCN2CCOCC2)C(=O)c2ncccc21
Result: 6.19

###

test_system: NSD2 (Homo sapiens, UniProt O96028)
Construct: full length (residues 2-1365), N-terminal His tag, insect cell/baculovirus
Sequence (O96028 2-1365): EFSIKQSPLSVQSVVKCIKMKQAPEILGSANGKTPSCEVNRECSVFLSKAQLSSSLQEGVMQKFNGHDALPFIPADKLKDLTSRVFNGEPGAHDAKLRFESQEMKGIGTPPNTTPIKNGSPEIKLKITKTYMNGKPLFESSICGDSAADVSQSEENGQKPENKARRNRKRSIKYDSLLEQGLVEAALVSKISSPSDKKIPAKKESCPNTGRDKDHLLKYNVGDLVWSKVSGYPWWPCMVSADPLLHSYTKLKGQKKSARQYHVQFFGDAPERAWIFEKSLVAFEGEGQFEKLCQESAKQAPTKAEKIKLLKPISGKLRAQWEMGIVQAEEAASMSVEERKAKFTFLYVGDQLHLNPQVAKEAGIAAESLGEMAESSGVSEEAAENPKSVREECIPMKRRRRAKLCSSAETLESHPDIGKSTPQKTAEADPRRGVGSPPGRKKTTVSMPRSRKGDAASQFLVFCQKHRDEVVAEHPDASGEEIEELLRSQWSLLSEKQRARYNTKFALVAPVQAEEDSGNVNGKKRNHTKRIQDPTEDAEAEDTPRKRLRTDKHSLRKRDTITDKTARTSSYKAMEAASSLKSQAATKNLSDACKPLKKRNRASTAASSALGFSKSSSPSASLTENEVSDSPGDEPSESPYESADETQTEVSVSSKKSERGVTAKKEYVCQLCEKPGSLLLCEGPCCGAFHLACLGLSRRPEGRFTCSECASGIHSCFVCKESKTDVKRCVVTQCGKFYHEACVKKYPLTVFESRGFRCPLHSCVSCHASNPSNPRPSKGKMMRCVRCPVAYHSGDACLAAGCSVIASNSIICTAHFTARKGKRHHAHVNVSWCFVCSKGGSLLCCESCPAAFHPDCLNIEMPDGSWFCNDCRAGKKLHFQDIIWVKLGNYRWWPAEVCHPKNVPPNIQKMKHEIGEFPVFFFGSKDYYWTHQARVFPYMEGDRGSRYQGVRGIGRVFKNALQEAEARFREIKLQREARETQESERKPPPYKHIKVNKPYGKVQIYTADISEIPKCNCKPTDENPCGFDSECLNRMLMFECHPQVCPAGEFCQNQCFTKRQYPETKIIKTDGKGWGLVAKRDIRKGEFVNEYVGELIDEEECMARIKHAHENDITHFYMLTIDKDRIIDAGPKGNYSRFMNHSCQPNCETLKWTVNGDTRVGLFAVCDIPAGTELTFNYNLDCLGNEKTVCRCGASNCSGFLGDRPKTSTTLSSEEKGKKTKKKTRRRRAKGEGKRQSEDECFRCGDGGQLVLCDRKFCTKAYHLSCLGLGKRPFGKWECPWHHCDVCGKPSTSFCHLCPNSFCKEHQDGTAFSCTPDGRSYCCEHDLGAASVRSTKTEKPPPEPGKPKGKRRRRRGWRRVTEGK
test_method_notes: biochemical
Set-up: MTase-Glo bioluminescence methyltransferase assay, full-length NSD2 with HeLa nucleosomes
conditions: read-out: MTase-Glo IC50
readout: IC50 (µM)
All answers are understood in µM, so give the number only.

Query: So what's the measured IC50 for this one? CC1(C)CCC(CN2CCN(c3ccc(C(=O)NS(=O)(=O)c4ccc(NCC5CCOCC5)c([N+](=O)[O-])c4)c(Oc4cnc5[nH]ccc5c4)c3)CC2)=C(c2ccc(Cl)cc2)C1
Result: 15
